target_of_assay: T1, Ala mutant having 3-amino acid substitution, SEQ ID NO: 47 (human)
T1 sequence (peptide): EENMDDQWMAAAMEIGY
assay_notes: ELISA, peptide on plate (10 ug/mL)
Reported absorbance 490 nm/630 nm values are given for each entry in this list.
Quick reminder: number only, in OD, skip the unit.

E9 (antibody, IgG1, V domains shown) VH: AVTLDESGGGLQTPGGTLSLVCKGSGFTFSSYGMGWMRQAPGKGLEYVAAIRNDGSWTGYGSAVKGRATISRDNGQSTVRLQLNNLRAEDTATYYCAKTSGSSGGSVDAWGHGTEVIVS VL: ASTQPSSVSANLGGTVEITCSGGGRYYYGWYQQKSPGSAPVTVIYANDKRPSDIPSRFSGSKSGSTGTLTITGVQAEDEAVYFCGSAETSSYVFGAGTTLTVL    1.34
G6 (antibody, IgG1, V domains shown) VH: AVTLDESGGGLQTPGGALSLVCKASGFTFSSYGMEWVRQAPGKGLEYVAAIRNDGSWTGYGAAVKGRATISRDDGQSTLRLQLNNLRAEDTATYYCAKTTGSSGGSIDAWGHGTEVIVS VL: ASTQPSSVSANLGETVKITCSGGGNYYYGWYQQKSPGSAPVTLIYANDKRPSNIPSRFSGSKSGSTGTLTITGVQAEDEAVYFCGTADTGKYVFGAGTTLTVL    1.73
G9 (antibody, IgG1, V domains shown) VH: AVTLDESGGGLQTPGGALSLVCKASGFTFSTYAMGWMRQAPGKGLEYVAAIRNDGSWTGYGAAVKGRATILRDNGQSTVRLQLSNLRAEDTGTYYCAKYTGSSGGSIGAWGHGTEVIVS VL: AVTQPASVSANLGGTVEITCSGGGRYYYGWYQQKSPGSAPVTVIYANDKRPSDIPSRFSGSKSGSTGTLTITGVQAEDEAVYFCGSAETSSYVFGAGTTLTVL    1.85

Which absorbance 490 nm/630 nm value is on record for G8 (antibody, IgG1, V domains shown) VH: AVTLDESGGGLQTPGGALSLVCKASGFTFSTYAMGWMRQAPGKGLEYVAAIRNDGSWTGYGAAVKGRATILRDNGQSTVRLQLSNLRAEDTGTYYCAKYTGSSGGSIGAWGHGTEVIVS VL: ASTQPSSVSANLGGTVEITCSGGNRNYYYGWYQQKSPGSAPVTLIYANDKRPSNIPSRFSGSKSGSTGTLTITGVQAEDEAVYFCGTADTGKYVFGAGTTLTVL ? 1.86

Which absorbance 490 nm/630 nm value is on record for A11 (antibody, IgG1, V domains shown) VH: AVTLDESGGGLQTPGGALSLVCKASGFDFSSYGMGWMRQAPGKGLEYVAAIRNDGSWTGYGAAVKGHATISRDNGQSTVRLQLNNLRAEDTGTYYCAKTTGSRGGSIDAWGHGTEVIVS VL: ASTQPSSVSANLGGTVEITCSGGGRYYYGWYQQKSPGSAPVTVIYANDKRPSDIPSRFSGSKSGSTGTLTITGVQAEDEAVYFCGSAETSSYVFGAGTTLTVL ? 1.25

Which absorbance 490 nm/630 nm value is on record for H7 (antibody, IgG1, V domains shown) VH: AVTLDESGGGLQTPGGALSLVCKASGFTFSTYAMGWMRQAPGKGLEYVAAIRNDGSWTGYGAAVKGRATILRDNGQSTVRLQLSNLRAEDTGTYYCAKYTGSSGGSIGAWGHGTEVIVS VL: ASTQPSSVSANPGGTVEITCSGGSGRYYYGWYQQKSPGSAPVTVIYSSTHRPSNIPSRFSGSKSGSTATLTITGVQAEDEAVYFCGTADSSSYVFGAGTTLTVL ? 1.67
